- System: CHEK1;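 further: KINOMEscan kinase panel screen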
- Condition Context: concentration: 1 μM,replicates: in singlicate; n = 1
Experimental Readout: %Inh (%)
Quick note: give the figure in %, leave out the unit.

Some solved cases for reference:
- Compound: "C[C@@H]1CCN(C(=O)CC#N)C[C@@H]1N(C)c1ncnc2[nH]ccc12"
  Unit Of Measurement: "%"
  Experimental Value: 0
- Compound: "CCN(CC)CCOc1ccc(Nc2ncc3cc(-c4c(Cl)cccc4Cl)c(=O)n(C)c3n2)cc1 [SB-601273]"
  Unit Of Measurement: "%"
  Experimental Value: 52
- Compound: "Cc1n[nH]c2ccc(-c3cc(OC[C@@H](N)Cc4ccccc4)cnc3-c3ccoc3)cc12.O=C(O)C(F)(F)F.O=C(O)C(F)(F)F [GSK507358]"
  Unit Of Measurement: "%"
  Experimental Value: 0
- Compound: "CCn1c(-c2nonc2N)nc2c(C#CC(C)(C)O)nc(OCCN)cc21.Cl.Cl [GSK902056]"
  Unit Of Measurement: "%"
  Experimental Value: 12
- Compound: "Cc1occc1-c1nc(N)c(OC[C@@H](N)Cc2c[nH]c3ccccc23)cc1-c1cc2c(C)n[nH]c2cn1 [GSK1660450]"
  Unit Of Measurement: "%"
  Experimental Value: 9
- Compound: "Cl.Cl.NC[C@H](CC1CCCCC1)NC(=O)c1cc(Br)c(-c2ccnc3[nH]ccc23)s1 [GSK1581427]"
  Unit Of Measurement: "%"
  Experimental Value: 60
- Compound: "Cl.Cl.Nc1nc(-c2ccc3c(N)n[nH]c3c2)cc(N2CCCC(NC(=O)c3ccccc3)C2)n1 (centres unmarked) [GSK2286775]"
  Unit Of Measurement: "%"
  Experimental Value: 0
- Compound: "O=C(NCCCN1CCOC1=O)c1cnc(NCc2cc(Cl)ccc2Cl)nc1NC1CCCC1"
  Unit Of Measurement: "%"
  Experimental Value: 9
- Compound: "C[C@@H](Oc1cc(-c2cnn(C3CCNCC3)c2)cnc1N)c1c(Cl)ccc(F)c1Cl"
  Unit Of Measurement: "%"
  Experimental Value: 0
- Compound: "C[C@H]1Oc2cc(cnc2N)-c2c(nn(C)c2C#N)CN(C)C(=O)c2ccc(F)cc21"
  Unit Of Measurement: "%"
  Experimental Value: 16

INPUT: State %Inh (CHEK1) of C=CC(=O)Nc1cc2c(Nc3ccc(F)c(Cl)c3)ncnc2cc1OCCCN1CCOCC1 [GW781483] .
OUTPUT: 0

INPUT: State %Inh (CHEK1) of `CC(C)N1C(=O)Cc2cc(Nc3ncc(C(F)(F)F)c(NCc4cccc(S(C)(=O)=O)c4)n3)ccc21` .
OUTPUT: 0

INPUT: State %Inh (CHEK1) of O=C(NCCNc1ccnc(NCc2ccc(F)cc2)n1)c1cc2ccccc2s1 [GSK1379944] .
OUTPUT: 100

INPUT: State %Inh (CHEK1) of CC(C)Nc1cc(-c2ccc3c(N)n[nH]c3c2)nc(N)n1 [GSK2221681] .
OUTPUT: 0

INPUT: State %Inh (CHEK1) of `Cc1cc2cn[nH]c2cc1-c1cccc2c(N)c(C(N)=O)nnc12` .
OUTPUT: 0

INPUT: State %Inh (CHEK1) of CN(C)CC(O)COc1ccc(Nc2nccc(-c3cnn4nc(N5CCOCC5)ccc34)n2)cc1 (centres unmarked) [GW767488] .
OUTPUT: 0
